Reference for the values: PubChem BioAssay AID2060486

- System: IGROV1 complex spheroids (HUVEC, MSC), viability % test/control
- PROCEDURE_TEXT: Anticancer human tumor IGROV1 cell line growth inhibition [GQUAD];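 note: spheroids exposed to compounds for 7 days before readout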;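 for viability, T/C: 100% = DMSO vehicle control viability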
- DETAILS: second compound 0.316 µM; first compound 0.316 µM; stronger effect = lower value
viability, T/C less than 70% is MET; viability, T/C greater than or equal to 70% is NOT MET.

Ask | Dear reviewer, please state whether O=c1[nH]cc(F)c(=O)[nH]1 + Cc1[nH]c2ccc(F)cc2c1-c1nc2c3cccnc3c3ncccc3c2[nH]1 has viability, T/C strictly beneath 70%.
Reply | NOT MET

Ask | Strictly below 70% in viability, T/C? Cc1[nH]c2ccccc2c1CCNCc1ccc(/C=C/C(=O)NO)cc1 + Cc1cnc(CNC(=O)c2c(=O)c3ccc(N4CCCN(C)CC4)nc3n3c2sc2ccccc23)cn1
Reply | MET

Ask | Does the reported viability, T/C of the following compound sit strictly below 70%? CCCS(=O)(=O)Nc1ccc(F)c(C(=O)c2c[nH]c3ncc(-c4ccc(Cl)cc4)cc23)c1F + Cc1[nH]c2ccc(F)cc2c1-c1nc2c3cccnc3c3ncccc3c2[nH]1
Reply | NOT MET

Ask | Lab note: viability, T/C threshold 70%. Does this compound come in strictly under it? CC1COCCN1c1cc(-c2ccnn2C)c2ccnc(-c3ccn[nH]3)c2n1 (stereo unspecified) + CN(C)c1ccc(Nc2c3ccc(NC(=O)CCN4CCCC4)cc3nc3cc(NC(=O)CCN4CCCC4)ccc23)cc1
Reply | MET

Ask | Quick check: viability, T/C of Cc1cccc(N(C)C(=O)C2C(O)CCN2c2nc(C)cc(C(F)(F)F)c2C#N)c1 (stereo unspecified) + Cc1cnc(CNC(=O)c2c(=O)c3ccc(N4CCCN(C)CC4)nc3n3c2sc2ccccc23)cn1 under 70%?
Reply | MET

====

A collection of compounds and their measured pIC50
- Tested on: IGROV1 complex spheroids (HUVEC, MSC), viability % test/control
- PROCEDURE_TEXT: Anticancer human tumor IGROV1 cell line growth inhibition [GQUAD];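 note: spheroids exposed to compounds for 7 days before readout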
- DETAILS: curve of compound
pIC50: −log10 of the molar value.

Known pIC50 results, listed for orientation:
{"COMPOUND": "Cc1cccc(N(C)C(=O)C2C(O)CCN2c2nc(C)cc(C(F)(F)F)c2C#N)c1 (stereo not given)", "pIC50": "< 5.00"}
{"COMPOUND": "COc1ncnc(C2CC2)c1-c1ncc2cnn(Cc3ccc(-c4nc(C(F)(F)F)cn4C(C)C)cc3)c2n1", "pIC50": "< 5.00"}
{"COMPOUND": "Nc1ccn(C2OC(CO)C(O)C2(F)F)c(=O)n1 (stereo not given)", "pIC50": "> 7.50"}
{"COMPOUND": "C=CC(=O)N1CCN(c2nc(=O)n(-c3c(C)ccnc3C(C)C)c3nc(-c4c(O)cccc4F)c(F)cc23)C(C)C1 (stereo not given)", "pIC50": "< 5.00"}

Recorded result, CC(=O)O[C@H]1C(=O)[C@@]2(C)[C@H]([C@H](OC(=O)c3ccccc3)[C@]3(O)C[C@H](OC(=O)[C@H](O)[C@@H](NC(=O)c4ccccc4)c4ccccc4)C(C)=C1C3(C)C)[C@]1(OC(C)=O)CO[C@@H]1C[C@@H]2O , pIC50: > 7.50

====

- Tested on: IGROV1 complex spheroids (HUVEC, MSC), viability % test/control
- PROCEDURE_TEXT: Anticancer human tumor IGROV1 cell line growth inhibition [GQUAD]; active means viability on the fitted dose curve at most 10% of control; inactive means the rest;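 note: spheroids exposed to compounds for 7 days before readout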
- DETAILS: second compound 10 µM; first compound 0.00316 µM
Response enum: active, inactive

Consider the worked cases shown below.
{"COMPOUND": "Cn1ncnc1[C@H]1c2n[nH]c(=O)c3cc(F)cc(c23)N[C@@H]1c1ccc(F)cc1 + Cc1cnc(CNC(=O)c2c(=O)c3ccc(N4CCCN(C)CC4)nc3n3c2sc2ccccc23)cn1", "CATEGORY_LABEL": "active"}
{"COMPOUND": "CC[C@@]1(O)C(=O)OCc2c1cc1n(c2=O)Cc2cc3c(CN(C)C)c(O)ccc3nc2-1 + CN(C)c1ccc(Nc2c3ccc(NC(=O)CCN4CCCC4)cc3nc3cc(NC(=O)CCN4CCCC4)ccc23)cc1", "CATEGORY_LABEL": "inactive"}
{"COMPOUND": "CCc1c2c(nc3ccc(O)cc13)-c1cc3c(c(=O)n1C2)COC(=O)[C@]3(O)CC + CN(C)c1ccc(Nc2c3ccc(NC(=O)CCN4CCCC4)cc3nc3cc(NC(=O)CCN4CCCC4)ccc23)cc1", "CATEGORY_LABEL": "inactive"}
{"COMPOUND": "Cn1ncnc1[C@H]1c2n[nH]c(=O)c3cc(F)cc(c23)N[C@@H]1c1ccc(F)cc1 + Cc1[nH]c2ccc(F)cc2c1-c1nc2c3cccnc3c3ncccc3c2[nH]1", "CATEGORY_LABEL": "active"}

Ask | Test call for this compound, please: Cc1[nH]c2ccccc2c1CCNCc1ccc(/C=C/C(=O)NO)cc1 + CN(C)c1ccc(Nc2c3ccc(NC(=O)CCN4CCCC4)cc3nc3cc(NC(=O)CCN4CCCC4)ccc23)cc1
Reply | inactive
